Examples of molecules with documented melting point follow.

Recorded melting point for "CC(=O)CC(=O)NC1CCCCC1" , please?
66 to 69 °C

***
Recorded melting point for "COC(=O)C(Cl)=Cc1cc(-n2ncc(C(F)(F)F)c(C)c2=O)ccc1Cl" , please?
80 to 81 °C

Recorded melting point for "CC(C)C[C@@H]1NC(=O)[C@@H]1O" , please?
141 to 142 °C

Recorded melting point for "N#Cc1cnc2cc(-c3ccc(CCN4CCOCC4)s3)ccc2c1Nc1ccc(Cl)cc1Cl" , please?
168 to 169 °C

Recorded melting point for "CCN(CC)C(=O)Cc1cccc(Oc2ccccc2F)c1N" , please?
159 to 160 °C

Recorded melting point for "O=C(CC1CCCCC1)Nc1c(Cl)ccc2nc(N3CC[C@H](NS(=O)(=O)C(F)(F)F)C3)ccc12" , please?
178 to 200 °C

Recorded melting point for "O=C(Cc1ccc(Cl)cc1)Nc1cccc(-n2nc(C(F)(F)F)cc2C(F)(F)F)c1" , please?
209 to 211 °C

Recorded melting point for "Cc1cc(SCc2sc(-c3ccc(C(F)(F)F)cc3)nc2C)c2c(c1OCC(=O)O)CCC2" , please?
184 °C

Recorded melting point for "COCC(=O)OC(=C1C(=O)N(C(N)=O)c2cc(Cl)c(F)cc21)c1cccs1" , please?
199 to 200 °C

Recorded melting point for "CCCCCCNC(=O)C=C(C)C=CC=C(C)C=Cc1c(C)cc(OC)c(C)c1C" , please?
157 to 158 °C

---

Examples of compounds with documented melting point follow.

Recorded melting point for "CC(C)(C)COc1c(-c2ccc(S(N)(=O)=O)cc2)cnn(-c2ccc(F)c(F)c2)c1=O" , please?
173 to 175 °C

Recorded melting point for "CCOc1nn(-c2ccc(C(F)(F)F)cn2)cc1CCCOc1c(CC(=O)O)cccc1OC" , please?
122 to 123 °C

Recorded melting point for CCOC(=O)C=C1C(OC)CC1c1cccc(C2(c3ccc(OC(F)F)cc3)N=C(N)N(C)C2=O)c1 (stereo not given) , please?
78 to 80 °C

Recorded melting point for "COc1ccc(Nc2cc(-c3ccc(S(C)(=O)=O)cc3)nc(N)n2)cc1Cl" , please?
241 to 244 °C

Recorded melting point for "COC(=O)c1ncn(C(c2ccccc2)c2ccccc2)c1C(=O)OC" , please?
93 °C

Recorded melting point for "CC1(C)OC(=O)C(Cc2c[nH]c3ccc(Br)cc23)C(=O)O1" , please?
179 to 181 °C

Recorded melting point for "Cc1ccc(S(=O)(=O)N(CC(=O)N(C)C)c2ccc(Cl)cc2C(=O)c2ccccc2Cl)cc1" , please?
154 to 157 °C

Recorded melting point for "C[C@H](CO)Nc1ccc([N+](=O)[O-])cc1F" , please?
128 to 130 °C

---

Examples of compounds with documented melting point follow.

Recorded melting point for "Nc1cc(N2CCCC2)c2c(Cl)ccc3c2c1C(=O)N(O)C3=O" , please?
211 to 213 °C

Recorded melting point for CC(C)(C)NS(=O)(=O)c1cn(CCOC2CCCCO2)c2ccccc12 (stereo not given) , please?
125 to 132 °C

Recorded melting point for CS(=O)c1ccc(-n2cnc3ccc(-c4nnc(S)o4)cc32)cc1 (stereo not given) , please?
299 to 300 °C

Recorded melting point for "O=S(=O)(NCCCCOc1ccc(-n2ccnc2)cc1)c1cc(Cl)ccc1Cl" , please?
144 to 146 °C

Recorded melting point for "CCc1cc([N+](=O)[O-])c(NC(CC)CC)c([N+](=O)[O-])c1COC" , please?
28 to 29 °C

Recorded melting point for "COc1ccc(C2=NNS(=O)(=O)Cc3cc4nsnc4cc32)cc1OC" , please?
228 to 230 °C

Recorded melting point for "O=C(O)/C=C/n1cnc2ccc(Cl)cc2c1=O" , please?
297 to 298 °C

Recorded melting point for "CCOC(=O)CCc1cn(Cc2ccccc2)nc1O" , please?
75 to 76 °C

Recorded melting point for "CC(C)N1OCC(=Cc2cc(C(C)(C)C)c(O)c(C(C)(C)C)c2)C1=O" , please?
178 to 180 °C

Recorded melting point for "N#CNC=NCc1ncc(C(F)(F)F)cc1Cl" , please?
106 to 108 °C
